Where these numbers come from: patent US20060018872A1

# Assay comment: physchem
# Run parameters: water
Observation type: solubility

Kindly note the recorded solubility for `COc1ccc2c(c1)c(CC(=O)O)c(C)n2C(=O)c1ccc(Cl)cc1` , which is 25 µg/mL
